Tested on: HEK-293T
Experimental Protocol: Multiplex assay against HEK293T
Type: toxicity, cell-based
Particulars: human, 48 h, 1 µM, compound concentration 1 uM
Experimental Readout: Population Fragmented Nuclei (%)
The answer is to be given in %; state only the numeric part.

Solved entries:
[
  {
    "Compound": "COc1ccc2c(c1)C(C(=O)N(Cc1ccc(N(C)C)cc1)c1ccc(C(C)C)cc1)CCC2.Cl (stereo unspecified)",
    "Endpoint Value": 12
  },
  {
    "Compound": "COc1cc(C(=O)N2CC[C@@H](O)[C@@H](N)C2)cc2nc(-c3cc4ccccc4n3CC3CC3)n(C)c12.Cl",
    "Endpoint Value": 9
  },
  {
    "Compound": "C[C@@H]1C[C@H]2[C@@H]3CCC4=CC(=O)C=C[C@]4(C)[C@@]3(F)[C@@H](O)C[C@]2(C)[C@@]1(O)C(=O)CO [DEXAMETHASONE]",
    "Endpoint Value": 15
  },
  {
    "Compound": "CSc1ccccc1N1CCN(CCCCCC(=O)NC2CCCc3ccccc32)CC1.Cl (stereo unspecified)",
    "Endpoint Value": 10
  }
]

The record that follows has no Population Fragmented Nuclei (%) shown yet.
Ask | Record lookup: for HEK-293T, what Population Fragmented Nuclei (%) belongs to CC(C)c1noc(N2CCC(COc3ccc(-c4ccc(S(C)(=O)=O)cc4)nc3)CC2)n1 [GSK-1292263] ?
Reply | 10
